experiment: Volume of distribution at steady state in C57BL6 mouse at 2 mg/kg, iv measured upto 24 hrs by LC-MS/MS analysis; type: ADME, organism-based; settings: in vivo, read-out: Vdss
EXPERIMENTAL ENDPOINT: Vd (L/kg)

INSERT INTO results (structure_smiles_string, endpoint_unit, measured_value) VALUES
  ('Cc1nc([C@@H]2O[C@H](CO)[C@H](O)[C@H](n3cc(-c4ccc(Br)c(F)c4F)nn3)[C@H]2O)n(-c2cc(Cl)ccc2C(F)(F)F)n1', 'L/kg', 2.4),
  ('Cc1nc([C@@H]2O[C@H](CO)[C@H](O)[C@H](n3cc(-c4cc(F)c(Cl)c(F)c4)nn3)[C@H]2O)n(-c2cc(Cl)ccc2C(F)(F)F)n1', 'L/kg', 1.7);

###

test: Metabolic stability of the compound in mouse liver microsomes assessed as CYP450-mediated metabolism by measuring parent compound remaining at 0.5 uM measured after 10 mins in presence of NADPH by LC-MS/MS analysis; assay type: ADME, Microsome; details: read-out: Stability
EXPERIMENTAL ENDPOINT: remaining at 10 min, 0.5 µM (%)

INSERT INTO measurements (structure_smiles_string, experimental_endpoint, endpoint_unit, measured_value) VALUES
  ('Cc1nc([C@@H]2O[C@H](CO)[C@H](O)[C@H](n3cc(-c4cc(F)c(Cl)c(F)c4)nn3)[C@H]2O)n(-c2cc(Cl)ccc2C(F)(F)F)n1', 'remaining at 10 min, 0.5 µM', '%', 85);

###

experiment: Permeability of the compound at pH 7.4 measured for 4 hrs by UV plate reader based PAMPA assay; type: ADME; conditions: read-out: permeability
EXPERIMENTAL ENDPOINT: Papp at 4 h (×10⁻⁶ cm/s)

INSERT INTO results (structure_smiles_string, measured_value) VALUES
  ('Cc1nc([C@@H]2O[C@H](CO)[C@H](O)[C@H](n3cc(-c4cc(F)c(F)c(F)c4)nn3)[C@H]2O)n(-c2cc(Cl)ccc2C)n1', 18.1),
  ('OC[C@H]1O[C@@H](n2nncc2-c2ccc(Cl)c(Cl)c2)[C@H](O)[C@@H](n2cc(-c3cc(F)c(F)c(F)c3)nn2)[C@H]1O', 7),
  ('Cc1nc([C@@H]2O[C@H](CO)[C@H](O)[C@H](n3cc(-c4cc(F)c(F)c(F)c4)nn3)[C@H]2O)n(-c2cc(Cl)ccc2Br)n1', 14.8),
  ('OC[C@H]1O[C@@H](c2ncnn2-c2cccc(Cl)c2)[C@H](O)[C@@H](n2cc(-c3cc(F)c(F)c(F)c3)nn2)[C@H]1O', 20.3);
